Hello, the source for this data is patent US20220175942A1, in case you need it.

MEASURED TARGET: CCL11_HUMAN (human, UniProt P51671 24-97)
Sequence (P51671 24-97): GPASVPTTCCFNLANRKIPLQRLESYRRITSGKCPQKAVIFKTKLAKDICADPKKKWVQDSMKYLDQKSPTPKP
PROCEDURE SUMMARY: BLI
READOUT LABEL: Kd (nM)
Give your result in nM as a bare value.

GET /values?readout=Kd&item= P467_RHIPU (other) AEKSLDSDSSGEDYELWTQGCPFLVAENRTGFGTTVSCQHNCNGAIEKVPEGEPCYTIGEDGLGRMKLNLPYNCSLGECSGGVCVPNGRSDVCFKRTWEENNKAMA 1.4

Next binder up: P1181_AMBMA (other) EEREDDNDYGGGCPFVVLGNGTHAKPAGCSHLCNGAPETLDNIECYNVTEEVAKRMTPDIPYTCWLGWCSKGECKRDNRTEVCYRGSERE 19.5

Same again, this time with P985_AMBPA (other) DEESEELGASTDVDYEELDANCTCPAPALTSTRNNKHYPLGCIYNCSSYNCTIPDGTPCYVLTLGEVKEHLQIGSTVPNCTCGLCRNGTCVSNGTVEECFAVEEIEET 8

Same for P1180_AMBTR (other) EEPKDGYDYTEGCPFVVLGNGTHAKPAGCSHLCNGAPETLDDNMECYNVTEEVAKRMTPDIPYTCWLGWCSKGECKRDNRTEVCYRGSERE 32.5

# repeat for P1182_AMBMA (other) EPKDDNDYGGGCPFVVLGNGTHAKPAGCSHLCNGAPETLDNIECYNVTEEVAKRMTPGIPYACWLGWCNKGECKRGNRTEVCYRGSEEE 56

Also check P1243_AMBAM (other) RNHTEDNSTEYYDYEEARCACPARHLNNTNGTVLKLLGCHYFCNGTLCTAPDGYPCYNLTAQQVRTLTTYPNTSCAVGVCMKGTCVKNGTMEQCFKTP 6.03

Then what about the binder P1183_AMBTR (other) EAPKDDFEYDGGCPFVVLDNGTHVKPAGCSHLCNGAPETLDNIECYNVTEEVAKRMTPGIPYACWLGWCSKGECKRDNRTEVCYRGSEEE ? 8.47

// same read-out, input: P991_AMBCA (other) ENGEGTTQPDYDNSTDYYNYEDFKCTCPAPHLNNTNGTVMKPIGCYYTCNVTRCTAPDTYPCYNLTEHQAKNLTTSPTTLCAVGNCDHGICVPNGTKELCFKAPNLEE 3.43

Follow-up entry: P546_AMBCA (other) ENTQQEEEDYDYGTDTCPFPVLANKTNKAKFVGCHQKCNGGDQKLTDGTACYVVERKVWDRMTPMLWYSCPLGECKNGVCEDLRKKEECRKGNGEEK 8.7

Repeat with P983_AMBCA (other) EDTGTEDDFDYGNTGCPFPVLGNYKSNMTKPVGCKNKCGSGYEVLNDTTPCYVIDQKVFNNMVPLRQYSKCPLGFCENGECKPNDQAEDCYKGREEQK 18

P974_AMBCA (other) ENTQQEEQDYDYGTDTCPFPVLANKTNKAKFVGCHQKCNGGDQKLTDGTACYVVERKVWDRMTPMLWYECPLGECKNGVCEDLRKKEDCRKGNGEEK , same question. 17
